Data credit: ChEMBL document CHEMBL1129199

# System: Aeromonas hydrophila
# Run description: Compound was evaluated for kinetic data for the inhibition of metallo beta lactamase from Aeromonas hydrophilia AE036.
Quantity measured: k+2

Just so you know, measured k+2 for `O=C(COc1ccccc1)N[C@@H](Cc1ccccc1)[C@@H](O)C(F)(F)F` came out at 4.3 s⁻¹

The reported k+2 of the compound `O=C(COc1ccccc1)N[C@@H](Cc1ccccc1)C(=O)C(F)(F)F` was 4.3 s⁻¹

`O=C(COc1ccccc1)N[C@H](Cc1ccccc1)[C@@H](O)C(F)(F)F` has a reported k+2 of 3.9 s⁻¹

Form field k+2, entry `C[C@@H](NC(=O)COc1ccccc1)C(=O)C(F)(F)F` : 1 s⁻¹

For record `C[C@H](NC(=O)COc1ccccc1)C(=O)C(F)(F)F` the listed k+2 is 4 s⁻¹

k+2 measured on `C[C@@H](NC(=O)COc1ccccc1)[C@@H](O)C(F)(F)F` = 1.1 s⁻¹

* * *

# Run description: Compound was evaluated for inhibition of metallo beta lactamase from Aeromonas hydrophilia AE036.
# Design: species or system Aeromonas hydrophila
Quantity measured: pKi
API: returns pKi as number; meaning -log10 of concentration in mol/L.

The recorded pKi for entry `C[C@@H](NC(=O)COc1ccccc1)[C@@H](O)C(F)(F)F` equals 3.66

// field: pKi; key: `C[C@H](NC(=O)COc1ccccc1)C(=O)C(F)(F)F` ; value = 4.36

# pKi (molecule: `C[C@@H](NC(=O)COc1ccccc1)C(=O)C(F)(F)F` ) is 4.96

// sample `O=C(COc1ccccc1)N[C@H](Cc1ccccc1)[C@@H](O)C(F)(F)F` , its pKi was 4.70

Entry `O=C(COc1ccccc1)N[C@@H](Cc1ccccc1)[C@@H](O)C(F)(F)F` , pKi reported as 4.72

Notebook: `O=C(COc1ccccc1)N[C@@H](Cc1ccccc1)C(=O)C(F)(F)F` , pKi read as 5.22
